target: PcrV of P. aeruginosa strain ATCC 700888 (Pseudomonas aeruginosa strain ATCC …); experiment: cell-based or functional assay
Outcome measure: Rabbit RBC Hemolysis Assay (IC50) (nM)
Numbers only, in nM.

Prompt: What Rabbit RBC Hemolysis Assay (IC50) value was documented for this binder, H1H29339P (antibody, V domains shown) VH: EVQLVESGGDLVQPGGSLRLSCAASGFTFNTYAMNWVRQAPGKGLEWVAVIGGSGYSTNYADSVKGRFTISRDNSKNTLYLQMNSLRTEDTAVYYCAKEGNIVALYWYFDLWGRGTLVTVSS VL: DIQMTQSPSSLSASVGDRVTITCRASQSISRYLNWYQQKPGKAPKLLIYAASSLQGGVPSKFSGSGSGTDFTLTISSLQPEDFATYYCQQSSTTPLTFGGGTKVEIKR ?
Response: 5.59
